Some molecules, each annotated with its measured IC50.
- TESTED TARGET: human JAK3 kinase domain (JH1) (Homo sapiens, UniProt P52333)
- Construct: recombinantly generated catalytic kinase (also known as JH1) domain of human JAK1, JAK2, JAK3 and TYK2
- Sequence (P52333 822-1111 limits assumed): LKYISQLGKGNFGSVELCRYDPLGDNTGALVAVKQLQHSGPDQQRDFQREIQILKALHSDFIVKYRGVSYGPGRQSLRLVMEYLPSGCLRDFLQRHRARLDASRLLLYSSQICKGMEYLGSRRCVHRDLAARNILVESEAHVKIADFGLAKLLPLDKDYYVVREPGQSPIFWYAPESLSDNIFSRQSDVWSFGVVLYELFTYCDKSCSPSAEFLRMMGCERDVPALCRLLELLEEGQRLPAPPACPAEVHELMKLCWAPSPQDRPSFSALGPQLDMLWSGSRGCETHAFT
- TEST SUMMARY: JH1 biochemical assay for JAK3 (ADP-Glo kinase assay, recombinant JH1 catalytic domain, JAK3-974 peptide, 4 μM ATP)
- CONDITION LABEL: JH1 kinase domain, ADP-Glo
Structures can show the parent of a compound that is named as a salt.

Completed entries (count: 5):
C[C@@H]1CN(c2nc(-c3cnc4c(c3)CC(=O)N4)cn3nccc23)C(=O)[C@]1(C#N)C1CC1 [Example 205]: < 0.1 µM
COc1cncc(-c2cc3c(N4C[C@@H](C)[C@@](C#N)(C5CC5)C4=O)ccnn3c2)n1 [Example 126, trifluoroacetate]: 0.1 to 1 µM
C[C@@H]1CN(c2ccnn3cc(-c4cc(CO)ccn4)cc23)C(=O)[C@]1(C#N)C1CC1 [Example 148, trifluoroacetate]: 0.1 to 1 µM
Cn1cc(-c2cc3c(N4CC[C@](C#N)(C5CC5)C4=O)ccnn3c2)cn1 [Example 14]: > 10 µM
C[C@@H]1CN(c2ccnn3cc(-c4nnc5n4CCCC5)cc23)C(=O)[C@]1(C#N)C1CC1 [Example 105, trifluoroacetate]: 5 to 10 µM

Prompt: Field request: IC50 | item: C[C@@H]1CN(c2ccnn3cc(-c4cnn5c4CCC5)cc23)C(=O)[C@]1(C#N)C1CC1 [Example 171]
Response: 0.1 to 1 µM

Prompt: Field request: IC50 | item: CC[C@@H]1CN(c2ccnn3cc(-c4cnn(C)c4)cc23)C(=O)[C@@]1(C#N)C1CC1 [Example 26]
Response: > 10 µM

Prompt: Field request: IC50 | item: C[C@@H]1CN(c2ccnn3cc(-c4cccnc4OC(F)F)cc23)C(=O)[C@]1(C#N)C1CC1 [Example 50]
Response: 1 to 5 µM

Prompt: Field request: IC50 | item: Cc1ccc(O)c(-c2cc3c(N4C[C@@H](C)[C@@](C#N)(C5CC5)C4=O)ccnn3c2)n1 [Example 140, trifluoroacetate]
Response: 5 to 10 µM

Prompt: Field request: IC50 | item: [2H]C([2H])([2H])n1cc(-c2cn3ncc(F)c3c(N3C[C@@H](C)[C@@](C#N)(C4CC4)C3=O)n2)cn1 [Example 211]
Response: < 0.1 µM

Where do the numbers come from? From patent US20260297085A1.
